B1: Formin-binding protein 4, residues 593 to 636; numbered along this chain, Q8N3X1 (parent)
chain: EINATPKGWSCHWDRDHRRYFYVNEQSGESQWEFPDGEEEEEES

Variants of: B1
PROTOCOL TEXT: abundance fitness (aPCA) (normalised: wild type 0, dead -1); higher = more abundant; growth selection in yeast, the domain comes from the species named
CONDITION SET: Homo sapiens
Parameter: abundance fitness. Scope: all listed entries.

MUTANT DESIGNATION: G37M
abundance fitness: -0.216

MUTANT DESIGNATION: Y22A
abundance fitness: -0.572

MUTANT DESIGNATION: F21L
abundance fitness: -0.051

MUTANT DESIGNATION: R15K
abundance fitness: 0.14

MUTANT DESIGNATION: S10E
abundance fitness: -0.381

MUTANT DESIGNATION: R19T
abundance fitness: -0.621

MUTANT DESIGNATION: R18P
abundance fitness: -0.635

MUTANT DESIGNATION: Q31V
abundance fitness: -0.153

Provenance of the data: the Human Domainome abundance scans (Beltran et al. 2025)
